These measurements were taken from the supplement of paper PMC10307832.

- Tested on: EKVX
- measurement.protocol: relative viability (nuclei count vs DMSO), 5 days (fraction); higher = more cells survive
- measurement.conditions: first compound 0.08 µM
Exercise: state measured relative viability for each of the compounds provided.
The response must contain the number and no unit.

Input: State the recorded relative viability for this entry: CCCCCCCCCCCC1=C(O)C(=O)C=C(O)C1=O [Embelin] + Cc1nc(Nc2ncc(C(=O)Nc3c(C)cccc3Cl)s2)cc(N2CCN(CCO)CC2)n1 [Dasatinib] (partner 0.075 µM)
Output: 0.564

Input: What about CCCCCCCCCCCC1=C(O)C(=O)C=C(O)C1=O [Embelin] + CS(=O)(=O)CCNCc1ccc(-c2ccc3ncnc(Nc4ccc(OCc5cccc(F)c5)c(Cl)c4)c3c2)o1 [Lapatinib] (partner 2 µM) ?
Output: 0.197

Input: Do the same for CCCCCCCCCCCC1=C(O)C(=O)C=C(O)C1=O [Embelin] + CS(=O)(=O)N1CCN(Cc2cc3nc(-c4cccc5[nH]ncc45)nc(N4CCOCC4)c3s2)CC1 [Pictilisib] (partner 1 µM) please
Output: 0.481

Input: Record: CCCCCCCCCCCC1=C(O)C(=O)C=C(O)C1=O [Embelin] + C[C@]1(O)C[C@@H](c2nc(-c3ccc4ccc(-c5ccccc5)nc4c3)c3c(N)nccn32)C1 [Linsitinib] (partner 1 µM)
Output: 0.967
